Provide the reported cytotoxicity at 70.5 h of each item.
# Experiment description: Human HepG2 cell viability assay in 384 well format
# Type: toxicity, cell-based
# Parameters: dose 125 nL, time 70.5 hour; concentration not given beside the values
# Setup conditions: HepG2 cells, read-out: Inhibition
One number for each entry, in %.

Solved entries (count: 5):
Cc1cccc(C2(CNC(=O)c3ccnc(N(C)C)c3)CCOCC2)c1 ... 15.5
CCOc1nc2cnccc2n(CC(=O)NCc2ccco2)c1=O ... -10.1
O=C(c1cnco1)N1CCCC(Cc2nccs2)C1 (stereo unspecified) ... -7.07
CC(C)c1nccc([C@H]2C[C@@H]3CCN(Cc4ccoc4)C[C@H]3O2)n1 ... -4.74
Cc1ncsc1-c1nnc(C2CCN(Cc3ccc(Cl)cc3)CC2)o1 ... 32.1

QUERY: Dear colleague, I am looking for the recorded cytotoxicity at 70.5 h of the following compound: COc1c(CNCC(O)c2ccc(C)cc2)c(C(C)C)nn1C (stereo unspecified)
RESULT: -3.08

###

# Experiment description: Human HepG2 cell viability assay in 384 well format
# Format: toxicity, cell-based
# Set-up: dose 125 nL, time 70.5 hour; concentration not given beside the values
# Setup conditions: HepG2 cells, read-out: Inhibition
Observable: cytotoxicity at 70.5 h (%)
Numbers only, in %.

CN(Cc1cc(C(C)(C)C)n[nH]1)C(=O)c1ccccc1C1CCNC1 (stereo unspecified) ... -13.4
Cc1noc(C)c1CNC(=O)Nc1ccc(N2CCOC(C)C2)cc1 (stereo unspecified) ... -13.8
O=C(C1CCOC1)N1CCN(Cc2ccc3c(c2)CCO3)CC1 (stereo unspecified) ... -9.08
CN(C)S(=O)(=O)N1C[C@@H]2CC[C@H](C1)N(C/C=C/c1ccc(F)cc1)C2 ... 0.852
CC(=O)NCc1ccc(C(=O)N2CCCC(n3cncn3)C2)o1 (stereo unspecified) ... 20.5

Look at each molecule and report its cytotoxicity at 70.5 h.
1. CCOc1cc(Cl)ccc1CNC(=O)c1ccc(=O)n(C)c1
2. COCCC(=O)N1C[C@H]2CN(Cc3cccnc3)C(=O)[C@H]2C1
3. CCN1CCC(CC(=O)NC[C@H]2CCc3ccccc3O2)CC1
4. CCOC1COC2(CCN(Cc3ccc(F)cc3)CC2)C1 (stereo unspecified)
5. CC(C)N(CCCNC(=O)C1CCOCC1)S(C)(=O)=O

RESULT:
1: 11.4; 2: 4.13; 3: -8.77; 4: -20.1; 5: -5.89

QUERY: Dear colleague, I am looking for the recorded cytotoxicity at 70.5 h of the following molecule: COc1ccc(CN2CC[C@H]3O[C@@H](C(=O)NCC4CC4)CC[C@H]32)cc1
RESULT: -8.24

###

Provide the reported cytotoxicity at 70.5 h of each item.
# Experiment description: Human HepG2 cell viability assay in 384 well format
# Format: toxicity, cell-based
# Set-up: dose 125 nL, time 70.5 hour; concentration not given beside the values
# Setup conditions: HepG2 cells, read-out: Inhibition
One number for each entry, in %.

Solved entries (count: 10):
CCn1c(C)nnc1CN(C)C1CCN(Cc2nnc(C3CC3)o2)C1 (stereo not given) ... 2.54
CN(CCOc1ccc(F)cc1)S(=O)(=O)N1CCOCC1 ... -9.68
Cc1noc(C)c1C(=O)N(C)Cc1nc(-c2ccccn2)no1 ... -1.56
Cc1nc(N)cc(C2CCN2CCC(N)=O)n1 (stereo not given) ... -3.73
CCn1ncc2c1CCCC2NCc1cc(C)ccc1OC (stereo not given) ... -12.5
CNC(=O)C1CN(Cc2ccc(C#N)cc2F)c2ccccc2O1 (stereo not given) ... 1
CCc1cc(=O)[nH]c(-c2ccc(NC(CO)CC(C)C)nc2)n1 (stereo not given) ... -2.63
CCCn1nccc1-c1nccnc1CC1CCN(C(C)=O)CC1 ... -2.55
Cc1cc(C)n(C2CN(C(=O)c3cn4ccsc4n3)C2)n1 ... 2.53
O=C(NCc1noc(C2CCCO2)n1)c1cn2ccsc2n1 (stereo not given) ... -9.32

Look at each molecule and report its cytotoxicity at 70.5 h.
1. Cc1cnc(CN(C)Cc2cc3c(cc2OC(F)F)OCO3)o1
2. O=C(NCCOc1ccccc1)NCC(O)c1cccs1 (stereo not given)
3. Nc1ccc(CC2CCCN(Cc3c[nH]cn3)C2)nn1 (stereo not given)

RESULT:
0.766
-11.8
-2.3

Look at each molecule and report its cytotoxicity at 70.5 h.
1. O=C(CCc1nc2cccnc2[nH]1)NCc1ccncc1
2. Cc1nn(C)c(N(C)C)c1CNC1CCc2cc(F)ccc21 (stereo not given)
3. Cn1cc(N2CCN(c3ccc(C#N)cc3F)CC2=O)cn1
4. CN1C(=O)C[C@@H]2[C@@H]1CCN2C(=O)c1ccc[nH]1

RESULT:
-19.4
-4.67
-3.17
-2.89
